# Tested on: NCI-H23 lung
# MEASUREMENT_PROTOCOL: NCI-60 one-dose screen, 48 h
# ASSAY_CONTEXT: 10 µM
# Description: Growth inhibition of the NCI-H23 human Non-Small Cell Lung tumor cell line is measured as a screen for anti-cancer activity. Cells are grown in 96 well plates and exposed to the test compound for 48 hours. Compounds are tested at a single concentration, which is 10^-5 M for most compounds. The reported endpoint is percent growth (GI% or GIPRCNT), where numbers from 0 - 100% represent growth inhibition, and numbers from -100% - 0 represent cell death. […]
About 83,000 compounds went through this panel and 20% of them were active in at least one assay; those are over-represented in the sample as a whole. Activity calls are given as the source filed them. Rule for the calls: active = growth percent below 10; inactive = the rest.
Classes used: active, inactive

STRUCTURE | TARGET_OF_ASSAY | LABEL
COC(=O)[C@]12CC[C@@H](C)[C@H](C)[C@@H]1C1=CC[C@@H]3[C@@]4(C)CC(=O)[C@H](O)[C@@](C)(CO)[C@@H]4C(=O)C[C@@]3(C)[C@]1(C)CC2 | NCI-H23 lung | active
CCCCC(CC#N)(CCC)CCC | NCI-H23 lung | inactive
COc1cc(CSc2nc3ccc(Cl)cc3c(=O)n2-c2ccccc2)cc(OC)c1OC | NCI-H23 lung | inactive
CN(C)Cc1cccs1 | NCI-H23 lung | inactive

---

# Test system: HCT-116 colon
# MEASUREMENT_PROTOCOL: NCI-60 one-dose screen, 48 h (100 = growth as untreated, 0 = no growth, -100 = all killed)
# ASSAY_CONTEXT: 10 µM
About 83,000 compounds went through this panel and 20% of them were active in at least one assay; those are over-represented in the sample as a whole.
# growth values compiled below

COMPOUND | U | growth
NC(=O)C1CCCN(Cc2c[nH]c3ccccc23)C1 (stereo not given) | % | 103
COc1ccc(C2C=C(c3ccc(Cl)c(Cl)c3)N=C3SC(C)=CN32)cc1 (stereo not given) | % | 14.4
N#CN1CC[C@H](C(=O)Nc2ncc(-c3ccccc3)s2)C1 | % | -3.16
O=c1[nH]c(=O)n(C2C[C@@H](O)[C@@H](CO)O2)cc1F (stereo not given in full) | % | 16.8
Cc1ccc2c3c(cccc13)-c1ccccc1C2=O | % | 86.4
CC(=O)OC1Oc2ccccc2-c2oc(=O)c(-c3ccc(F)cc3)cc21 (stereo not given) | % | 86.5
CCOC(=O)C(CCC1=NC(C)(C)CC(C)O1)C(=O)OCC (stereo not given) | % | 46
O=c1oc2c3ccc4cnccc4c3[nH]c2c2ccccc12 | % | -14.5
COC(=O)c1c(C)nc(Nc2nc3ccccc3s2)nc1-c1ccc(Cl)cc1Cl | % | 98.4
CCCCCCCCCCSC(=N)N (tested in a mixture with another compound) | % | 55.6
O=c1cc(CSc2nnc(-c3ccccc3)n2-c2ccc(F)cc2)c2ccc3ccccc3c2o1 | % | 86.5
Nc1c(CNCc2nnn(Cc3ccccc3)c2N)nnn1Cc1ccccc1 | % | 103
COc1cc(C2C=C(c3ccc(Cl)cc3)N=C3SC(C)=CN32)cc(OC)c1OC (stereo not given) | % | 50.3
O=C(OCC1OC(n2cc(C(F)(F)F)c(=O)[nH]c2=O)CC1OC(=O)c1ccc([N+](=O)[O-])cc1)c1ccc([N+](=O)[O-])cc1 (stereo not given) | % | 72.7
O=C(O)CN1C(=O)C=CC1=O | % | 107
Nc1c(C(=O)Nc2ccccc2F)sc2nc3c(cc12)C(=O)CCC3 | % | 32
C(=C\c1nc2ccccc2s1)/c1ccc(N2CCOCC2)s1 | % | 55.4
COC(=O)[C@]12CC[C@@H](C)[C@H](C)[C@@H]1C1=CC[C@@H]3[C@@]4(C)C[C@@H](O)[C@H](O)[C@@](C)(CO)[C@@H]4[C@H](O)C[C@@]3(C)[C@]1(C)CC2 | % | -82.3
CCOc1ccc(-n2cc(-c3ccc(N(C)C)cc3)[n+]3c2CCCCC3)cc1 | % | 0.582
c1ccc(CC(NCCNC(Cc2ccccc2)c2ccccc2)c2ccccc2)cc1 (stereo not given) | % | -25.3
COc1ccc(Cn2cc3c(c2-c2ccccc2)CC(C)(C)c2cnoc2-3)cc1 | % | 22.9
COc1cc(-c2nc3ccccc3[nH]2)ccc1OCc1nnc(-c2ccc(Br)cc2)o1 | % | 59.9
COc1ccc2oc(=O)cc(C(c3ccc[nH]3)c3ccc[nH]3)c2c1 | % | -3.62
CCOc1ccc2c(c1)CC[C@@H]1[C@@H]2CC[C@]2(C)[C@@H](O)[C@@H](O)C[C@@H]12 | % | 104
CCCc1c(C)nc2scc(-c3ccc(Cl)cc3)n2c1=O | % | 99.1
C[C@@H]1N=C(c2ccc(Br)cc2)Nc2nc3ccccn3c2C1=O | % | 29.2
COc1ccc(COC(=O)CC(C)C)cc1 | % | 96.3
CCC1(C)OC(=O)NC1=O (stereo not given) | % | 87.7
N=C(N)c1ccc(-c2ccc(-c3ccccc3)s2)cc1F | % | -91.8
NC(=O)c1ccc(Br)o1 | % | 108

---

# System: SF-539 CNS
# MEASUREMENT_PROTOCOL: NCI-60 one-dose screen, 48 h (100 = growth as untreated, 0 = no growth, -100 = all killed)
# ASSAY_CONTEXT: 10 µM
The panel holds about 83,000 compounds, 20% with a hit somewhere; the sample as a whole holds those more often.
# growth values compiled below

COMPOUND | growth (%)
Cc1ccc(-c2cc(C(=O)Nc3ccc(S(=O)(=O)N4CCCCC4)cc3)[nH]n2)c(O)c1 | 48.8
FC(F)(F)c1ccc(-c2cnc(Br)nc2NC2CCCCCC2)cc1 | 82.4
N#CC1C=Cc2c(ccc3ccccc23)N1C(=O)c1ccccc1 (centres undefined) | -7
O=C(CCCC(=O)N/N=C/c1cc(Cl)ccc1O)N/N=C\c1cc(Cl)ccc1O | 14.1

---

# Test system: K-562 leukemia
# MEASUREMENT_PROTOCOL: NCI-60 one-dose screen, 48 h (100 = growth as untreated, 0 = no growth, -100 = all killed)
# ASSAY_CONTEXT: 10 µM
The panel holds about 83,000 compounds, 20% with a hit somewhere; the sample as a whole holds those more often. The source made the active and inactive calls. The calls were made as follows: active = growth percent below 10; inactive = the rest.
QUANTITY_KIND: growth

STRUCTURE | QUANTITY_KIND | VALUE
CCNC1(NC#N)CCCCC1 | growth | 115% (inactive)
COc1c(C)c(C)c(OC)c2c1[nH]c(=O)c1c3cccnc3cn21 | growth | 102% (inactive)
Cc1nn2c(/C=C3/C(=O)Nc4ccc(Cl)cc43)c(-c3ccccc3)nc2s1 | growth | 56.7% (inactive)
O=C(Nc1cccc(C(F)(F)F)c1)C(Cl)Cl | growth | 102% (inactive)
CCOC(=O)c1cc(-c2ccccc2)nc(N)n1 | growth | 104% (inactive)
O=c1oc2cc(OS(=O)(=O)C3CC3)ccc2c2c1CCCCCC2 | growth | 51.2% (inactive)
CCOC(=O)c1c(Cl)c2c(n1Cc1cccc(OC)c1)-c1oncc1CC2 | growth | 17.6% (inactive)
C=C1C(=O)O[C@H]2[C@H]1CC/C(COC(=O)OCCCCCOC(=O)OC/C1=C/CC[C@@]3(C)O[C@H]3[C@H]3OC(=O)C(=C)[C@@H]3CC1)=C\CC[C@@]1(C)O[C@@H]21 | growth | 1.11% (active)
O=C(CCc1ccccc1)N1CCN(C(=O)CCc2ccccc2)CC1 | growth | 108% (inactive)
O=C(Nc1cccc([N+](=O)[O-])c1)NN1CCCCCC1 | growth | 84.1% (inactive)
COc1c(-c2c3sc(=O)[nH]c3nc3c2c(=O)[nH]n3C(C)C)cc2c(c1OC)OCO2 | growth | 86% (inactive)
Nc1ccc(Sc2ccc3c4c2cccc4c(=O)n2c4ccccc4nc32)cc1 | growth | 60.3% (inactive)
CCCCCCCC/C=C/CCCCCCCCC1=NCCN1CCO | growth | -11.8% (active)
CCN(CC)c1ccc(/C=C/C2=[N+](C)c3ccccc3C2(C)C)c(C)c1 | growth | 6.13% (active)
Cc1cc(OI)c(C(C)C)cc1-c1cc(C(C)C)c(OI)cc1C | growth | 98.8% (inactive)
COc1ccc(-c2ccccc2)cc1C(=O)c1ccc(-c2ccccc2)cc1 | growth | 20.8% (inactive)
CCCc1ccnc(NS(=O)(=O)c2ccc(N)cc2)n1 | growth | 54.7% (inactive)
COc1cccc(-c2nnc(COc3ccc(-c4nc5ccccc5[nH]4)cc3OC)o2)c1 | growth | 55.5% (inactive)
COc1cc2c3c(cccc3c1)C(=O)N(CCN1CCCC1)C2=O | growth | 4.01% (active)
COc1cccc2c1O/C(=C\c1ccc([N+](=O)[O-])s1)C2=O | growth | 8.38% (active)
O=C(Nc1cccc(F)c1)Nc1cccc(Cl)c1 | growth | 10.9% (inactive)
COc1ccc(NC(=O)CCn2cnc3c(cc(-c4ccccc4)n3-c3ccccc3)c2=O)cc1 | growth | 90.6% (inactive)
O=S(=O)(O)C1(O)CCCCC1 | growth | 85.3% (inactive)
O=C(O)c1cc(C(F)(F)F)cc(C(F)(F)F)c1 | growth | 95.2% (inactive)
COc1ccc(Cn2cc3c(c2-c2cc(OC)c(OC)c(OC)c2)CCc2cnoc2-3)cc1[N+](=O)[O-] | growth | 15.3% (inactive)
CCc1cc2n(n1)-c1ncc(C(=O)OC)cc1Oc1ccccc1-2 | growth | 102% (inactive)
COCCOC(=O)NC(=O)Nc1ccc(C(=O)c2ccc(Cl)cc2)cc1 | growth | 11.7% (inactive)
CCn1nc(-c2ccc(C(=O)OC)cc2)nc2c(=O)n(C)c(=O)nc1-2 | growth | 80.9% (inactive)
CCCc1c(CC)c(=N)c2ccccc2n1C | growth | -3.78% (active)
COc1cc(CSc2nc3ccc(C)cc3c(=O)n2Cc2ccccc2)cc(OC)c1OC | growth | 13.8% (inactive)
CCOC(=O)c1cc2c(n1Cc1ccccc1)-c1oncc1CC2 | growth | 15.3% (inactive)
Clc1cc(Cl)c(Cl)c(-c2nc(-c3cccnc3)cs2)c1 | growth | 12% (inactive)
